Hey, just so you know, these numbers are from ChEMBL document CHEMBL1146074.

- studyTarget: UniProt P47712
- assayDetails: Inhibition of human isolated cPLA2-alpha by vesicle assay
pIC50: −log10 of the molar value.
Below is a list of entries, each paired with its recorded pIC50 value.
measurementType: pIC50

>>> print(df.to_string())
                                         mol     studytarget  measuredvalue
 0  CCCCCCCCCCOc1ccc(OCC(=O)Cn2ccc3cc(C(=O)O)ccc32)cc1  UniProt P47712           7.70
 1  CCCCCCCCc1ccc(OCC(=O)Cn2ccc3cc(C=O)ccc32)cc1  UniProt P47712           5.37
 2  CCCCCCCCc1ccc(OCC(=O)Cn2ccc3cc(C(N)=O)ccc32)cc1  UniProt P47712           6.92
 3  CCCCCCCCc1ccc(OCC(=O)Cn2cc(C(C)=O)c3cc(C(=O)O)ccc32)cc1  UniProt P47712           7.80
 4  CCCCCCCCc1ccc(OCC(=O)Cn2cc(C(=O)OC)c3cc(C(=O)O)ccc32)cc1  UniProt P47712           8.31
 5  CCCCCCCCCCOc1ccc(OCC(=O)Cn2cc(C(=O)OC)c3cc(C(=O)O)ccc32)cc1  UniProt P47712           8.37
 6  CCCCCCCCc1ccc(OCC(=O)Cn2ccc3ccc(C(=O)O)cc32)cc1  UniProt P47712           5.96
 7  CCCCCCCCc1ccc(OCC(=O)Cn2cc(C=O)c3cc(C(=O)O)ccc32)cc1  UniProt P47712           7.80
 8  CCCCCCCCc1ccc(OCC(=O)Cn2cc(C#N)c3cc(C(=O)O)ccc32)cc1  UniProt P47712           7.82
 9  CCCCCCCCc1ccc(OCC(=O)Cn2cc(Cl)c3cc(C(=O)O)ccc32)cc1  UniProt P47712           6.96
10  CCCCCCCCc1ccc(OCC(=O)Cn2cc(C(=O)O)c3cc(C(=O)O)ccc32)cc1  UniProt P47712           6.05
11  CCCCCCCCc1ccc(OCC(=O)Cn2cc(C(C)(C)C)c3cc(C(=O)O)ccc32)cc1  UniProt P47712           6.47

---

- studyTarget: Cytosolic phospholipase A2 (Homo sapiens)
- Sequence (P47712 whole entry): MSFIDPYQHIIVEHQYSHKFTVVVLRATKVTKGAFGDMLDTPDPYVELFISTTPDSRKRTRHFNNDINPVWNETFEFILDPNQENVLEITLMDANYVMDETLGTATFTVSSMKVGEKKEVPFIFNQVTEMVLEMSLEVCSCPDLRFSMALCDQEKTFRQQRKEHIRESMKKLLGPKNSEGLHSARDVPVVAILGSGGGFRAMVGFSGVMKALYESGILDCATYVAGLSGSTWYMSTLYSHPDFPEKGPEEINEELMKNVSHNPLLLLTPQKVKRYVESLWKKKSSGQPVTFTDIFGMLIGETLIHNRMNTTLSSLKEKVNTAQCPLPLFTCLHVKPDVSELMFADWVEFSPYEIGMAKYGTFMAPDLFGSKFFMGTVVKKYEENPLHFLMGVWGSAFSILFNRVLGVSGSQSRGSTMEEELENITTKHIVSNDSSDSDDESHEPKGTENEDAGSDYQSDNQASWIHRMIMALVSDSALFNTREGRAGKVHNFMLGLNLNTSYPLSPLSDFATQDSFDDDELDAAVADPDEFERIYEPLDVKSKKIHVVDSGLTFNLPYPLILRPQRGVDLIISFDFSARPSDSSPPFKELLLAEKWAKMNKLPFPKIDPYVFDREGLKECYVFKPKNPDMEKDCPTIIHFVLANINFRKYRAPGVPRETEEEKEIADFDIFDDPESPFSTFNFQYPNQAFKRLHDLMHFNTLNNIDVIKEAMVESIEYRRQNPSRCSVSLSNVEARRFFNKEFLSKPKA
- assayDetails: Inhibition of cPLA2-alpha activity assessed by TPA-induced arachidonic acid release in human platelet
- Assay type: functional
Label 1.0 when IC50 is strictly below 8 nM; otherwise label 0.0.

>>> df
                                        mol  assignedlabel
0  CCCCCCCCc1ccc(OCC(=O)Cn2ccc3cc(C(=O)O)ccc32)cc1            0.0
1  CCCCCCCCc1ccc(OCC(=O)Cn2cc(C(=O)OC)c3cc(C(=O)O)ccc32)cc1            1.0
2  CCCCCCCCc1ccc(OCC(=O)Cn2cc(C(=O)O)c3cc(C(=O)O)ccc32)cc1            0.0
3  CCCCCCCCc1ccc(OCC(=O)Cn2cc(C#N)c3cc(C(=O)O)ccc32)cc1            0.0
4  CCCCCCCCc1ccc(OCC(=O)Cn2cc(C(C)(C)C)c3cc(C(=O)O)ccc32)cc1            0.0
5  CCCCCCCCc1ccc(OCC(=O)Cn2cc(C(C)=O)c3cc(C(=O)O)ccc32)cc1            1.0
6  CCCCCCCCc1ccc(OCC(=O)Cn2cc(Cl)c3cc(C(=O)O)ccc32)cc1            0.0
7  CCCCCCCCc1ccc(OCC(=O)Cn2cc(C=O)c3cc(C(=O)O)ccc32)cc1            0.0
8  CCCCCCCCCCOc1ccc(OCC(=O)Cn2cc(C(=O)OC)c3cc(C(=O)O)ccc32)cc1            1.0
